The reported measurements were obtained from paper PMC13083723.

- Tested on: Vero-E6
- Experiment Notes: primary screen, phospholipidosis by LipidTOX staining; higher = more effect of the substance
- Experimental Parameters: 10 µM
The campaign covered roughly 5,400 compounds. About 190 (3.5%) showed an effect of 50% or more. The sample holds strong results, similar compounds and a random draw of the others, so the mix is not that of the screen. Positions of bridges follow the written chain, without caps; N, C: chain ends. Non-standard residues stand in square brackets, D forms with d. Residues, ends and D or L forms follow the SMILES beside them. *: point of attachment. X1 = CCC(C)C(N)C1=NC(C(=O)*)CS1; dOrn = NCCC[C@@H](N)C(=O)O
Metric Name: result_ITMP (%)

- Compound: "CN1CCN(CC/C=C2/c3ccccc3Sc3ccc(S(=O)(=O)N(C)C)cc32)CC1"
  Metric Name: "result_ITMP"
  Observed Measurement: 61.9
- Compound: "OCCOCCN1CCN(C2=Nc3ccccc3Sc3ccccc32)CC1"
  Metric Name: "result_ITMP"
  Observed Measurement: 22.1
- Compound: "O=c1ccc2[nH]cc(C3=CCNCC3)c2[nH]1"
  Metric Name: "result_ITMP"
  Observed Measurement: -1.73
- Compound: "CCC(C)C(N)C1=NC(C(=O)N[C@@H](CC(C)C)C(=O)N[C@H](CCC(=O)[O-])C(=O)N[C@H](C(=O)N[C@H]2CCCCNC(=O)[C@H](CC(N)=O)NC(=O)[C@@H](CC(=O)[O-])NC(=O)[C@@H](Cc3cnc[nH]3)NC(=O)[C@@H](Cc3ccccc3)NC(=O)[C@@H]([C@H](C)CC)NC(=O)[C@@H](CCCN)NC2=O)[C@@H](C)CC)CS1 (stereo partly shown) (X1-L[dE]IK[dOrn][dI][dF][dH][dD]N; lactam 4-C)"
  Metric Name: "result_ITMP"
  Observed Measurement: -3.81
- Compound: "Cc1[nH]c2ccc(Cl)cc2c1C1=CCNCC1"
  Metric Name: "result_ITMP"
  Observed Measurement: 96.8
- Compound: "O=C(/C=C/c1c(C(=O)[O-])[nH]c2cc(Cl)cc(Cl)c12)Nc1ccccc1"
  Metric Name: "result_ITMP"
  Observed Measurement: 0.43
- Compound: "COc1ccc2[nH]cc(C3=CCNCC3)c2c1"
  Metric Name: "result_ITMP"
  Observed Measurement: -0.41
